Let's go through some recorded IC50 values for Full length EN PA (influenza PA endonuclease) (Influenza A virus) together.

Documented IC50 of CN1CC(C(c2cccc(Cl)c2)c2cccc(Cl)c2)n2ncc(=O)c(O)c2C1=O (stereo not drawn) : < 250 nM

Documented IC50 of COc1cccc(C(c2ccccc2)C2CN(C)C(=O)c3c(O)c(=O)cnn32)c1 (stereo not drawn) : < 250 nM

Documented IC50 of "CCC#Cc1ccn([C@@H](c2ccccc2)[C@H]2CN(C)C(=O)c3c(O)c(=O)cnn32)n1" : < 250 nM

Documented IC50 of "C[C@H](N1C[C@H](C(c2ccccc2)c2ccccc2)n2ncc(=O)c(O)c2C1=O)C(F)(F)F" : < 250 nM

Documented IC50 of "C#Cc1ccn([C@@H](c2ccccc2)[C@@H]2CN(C)C(=O)c3c(O)c(=O)cnn32)n1" : 250 to 1000 nM

Documented IC50 of CCN1CC(C(c2cccc(C)c2)c2cccc(C)c2)n2ncc(=O)c(O)c2C1=O (stereo not drawn) : < 250 nM

Documented IC50 of CN1CC(CCc2ccccc2)n2ncc(=O)c(O)c2C1=O (stereo not drawn) : < 250 nM

Documented IC50 of CN1CC(Cc2ccccc2)n2ncc(=O)c(O)c2C1=O (stereo not drawn) : < 250 nM

Documented IC50 of Cc1cccc(C(c2cccc(C)c2)C2CN(C(C)C)C(=O)c3c(O)c(=O)cnn32)c1 (stereo not drawn) : < 250 nM

Documented IC50 of O=C1NCC(C2c3ccccc3CSc3cc(Cl)ccc32)n2ncc(=O)c(O)c21 (stereo not drawn) : 250 to 1000 nM

Documented IC50 of CN1CC(C2c3ccc(Cl)cc3CCc3cc(Cl)ccc32)n2ncc(=O)c(O)c2C1=O (stereo not drawn) : < 250 nM

Documented IC50 of "CC(C)N1C[C@H](C(c2ccccc2)c2ccccc2)n2ncc(=O)c(OC(=O)C3CCCCC3)c2C1=O" : 250 to 1000 nM

Documented IC50 of CN1C[C@@H](C2c3ccccc3CCc3cccnc32)n2ncc(=O)c(O)c2C1=O (stereo partly drawn) : 250 to 1000 nM

Documented IC50 of CN1CC(C(c2ccccc2)c2ccc(Cl)cc2)n2ncc(=O)c(O)c2C1=O (stereo not drawn) : < 250 nM

Documented IC50 of "CCN1C[C@H]([C@H](c2ccccc2)c2cccc(Cl)c2)n2ncc(=O)c(O)c2C1=O" : < 250 nM

Documented IC50 of "CC#Cc1ccn([C@@H](c2ccccc2)[C@@H]2CN(C)C(=O)c3c(O)c(=O)cnn32)n1" : ≥ 1000 nM

Documented IC50 of CC(N)C(=O)OCOc1c2n(ncc1=O)[C@@H](C(c1ccccc1)c1ccccc1)CN(C(C)C)C2=O (stereo partly drawn) : < 250 nM

Documented IC50 of "CN1C[C@H]([C@@H](c2ccccc2)n2cnc(I)c2)n2ncc(=O)c(O)c2C1=O" : < 250 nM

Documented IC50 of "CN1C[C@@H](C2c3ccc(F)cc3CCc3cc(F)ccc32)n2ncc(=O)c(O)c2C1=O" : < 250 nM

Documented IC50 of O=C1NCC(C(c2ccccc2)c2ccccc2)n2ncc(=O)c(O)c21 (stereo not drawn) : < 250 nM

Documented IC50 of CN1CC(C2c3cc(F)ccc3CCc3ccc(F)cc32)n2ncc(=O)c(O)c2C1=O (stereo not drawn) : < 250 nM

Documented IC50 of "CCN1C[C@@H]([C@@H](c2ccccc2)c2cccc(Cl)c2)n2ncc(=O)c(O)c2C1=O" : 250 to 1000 nM

Documented IC50 of "CC(C)N1C[C@@H](C(c2cccc(Cl)c2)c2cccc(Cl)c2)n2ncc(=O)c(O)c2C1=O" : 250 to 1000 nM

Documented IC50 of "CN1C[C@@H](C2c3cccc(F)c3CCc3c(F)cccc32)n2ncc(=O)c(O)c2C1=O" : 250 to 1000 nM

Documented IC50 of CN1CC(C(c2ccccc2)c2cccc(C#N)c2)n2ncc(=O)c(O)c2C1=O (stereo not drawn) : < 250 nM

Documented IC50 of "CCOc1c2n(ncc1=O)[C@@H](C(c1cccc(F)c1)c1cccc(F)c1)CN(CC)C2=O" : ≥ 1000 nM

Documented IC50 of CN1CC(C(c2ccccc2)c2cccc(F)c2)n2ncc(=O)c(O)c2C1=O (stereo not drawn) : < 250 nM

Documented IC50 of CCN1CC(C(c2cccc(F)c2)c2cccc(F)c2)n2ncc(=O)c(O)c2C1=O (stereo not drawn) : < 250 nM

Documented IC50 of "CC(C)N1CC(=C2c3ccccc3CCc3ccccc32)n2ncc(=O)c(O)c2C1=O" : < 250 nM

Documented IC50 of O=C1NCC(C2c3ccccc3CSc3c(Cl)cccc32)n2ncc(=O)c(O)c21 (stereo not drawn) : < 250 nM

Documented IC50 of Cc1cccc(C(c2ccccc2)C2CN(C)C(=O)c3c(O)c(=O)cnn32)c1 (stereo not drawn) : < 250 nM

Documented IC50 of "CN1C[C@H]([C@@H](c2ccccc2)c2ccccn2)n2ncc(=O)c(O)c2C1=O" : < 250 nM

Documented IC50 of CN1CC(C(c2ccccc2)c2ccc(F)cc2)n2ncc(=O)c(O)c2C1=O (stereo not drawn) : < 250 nM
